tested_system: furin, P09958;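 note: purified furin at 1:10 enzyme:substrate in 50 mM HEPES pH 7.5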
Sequence (P09958 whole entry): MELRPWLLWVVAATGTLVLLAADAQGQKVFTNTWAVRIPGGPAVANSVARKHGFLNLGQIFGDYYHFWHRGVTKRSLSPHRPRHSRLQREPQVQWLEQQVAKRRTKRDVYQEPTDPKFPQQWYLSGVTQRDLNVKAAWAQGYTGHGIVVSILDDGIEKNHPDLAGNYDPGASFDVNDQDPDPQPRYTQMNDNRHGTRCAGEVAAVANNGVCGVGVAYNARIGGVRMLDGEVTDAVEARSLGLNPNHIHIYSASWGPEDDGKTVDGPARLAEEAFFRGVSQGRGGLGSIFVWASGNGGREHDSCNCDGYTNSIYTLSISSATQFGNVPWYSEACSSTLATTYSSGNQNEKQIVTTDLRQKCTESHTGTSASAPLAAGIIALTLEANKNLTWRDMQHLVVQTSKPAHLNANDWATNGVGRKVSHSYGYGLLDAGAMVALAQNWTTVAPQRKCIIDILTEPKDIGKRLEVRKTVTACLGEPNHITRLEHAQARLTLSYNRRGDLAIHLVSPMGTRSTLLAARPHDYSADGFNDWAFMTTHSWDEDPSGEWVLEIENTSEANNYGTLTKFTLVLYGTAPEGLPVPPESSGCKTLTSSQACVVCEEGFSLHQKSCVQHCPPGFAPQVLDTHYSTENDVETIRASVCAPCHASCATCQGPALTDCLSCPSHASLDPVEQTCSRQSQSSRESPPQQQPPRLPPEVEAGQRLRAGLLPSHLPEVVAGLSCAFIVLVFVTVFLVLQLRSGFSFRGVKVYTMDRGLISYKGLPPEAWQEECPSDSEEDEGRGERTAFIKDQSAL
method_notes: furin cleavage Z-score vs untreated control; higher = more cleavage, active = 3.5 or more, inactive = 1 or less, 8 variable residues between constant flanks
protocol_conditions: 7.5 min
The other results are listed elsewhere or left out. How many sequences the whole screen found active is unknown.
Classification field. Basis: furin cleavage Z-score. Definitions: low = under -0.08, medium = from -0.08 up to 1, high = 1 and over

- sequence_text: "CAINGLPVSAAGNASASA [HC659]"
  assigned_label: "low"
- sequence_text: "CATPGDPKRTAGNASASA [FS-510]"
  assigned_label: "low"
- sequence_text: "CAVLHRNKRTAGNASASA [FS-1661]"
  assigned_label: "high"
- sequence_text: "CAVLRRDVITAGNASASA [FS-2855]"
  assigned_label: "medium"
- sequence_text: "CASPGRSARPAGNASASA [FS-93]"
  assigned_label: "low"
- sequence_text: "CASGPWITPRAGNASASA [HC460]"
  assigned_label: "low"
- sequence_text: "CASPPRRARVAGNASASA [FS-1571]"
  assigned_label: "medium"
- sequence_text: "CADVSRARRVAGNASASA [FS-1519]"
  assigned_label: "medium"
- sequence_text: "CAGLGRRRRVAGNASASA [FS-1127]"
  assigned_label: "high"
- sequence_text: "CAAVLTSMLTAGNASASA [HC1245]"
  assigned_label: "low"
- sequence_text: "CAASRRRARVAGNASASA [FS-1187]"
  assigned_label: "high"
- sequence_text: "CARALRSSGTAGNASASA [FS-1944]"
  assigned_label: "medium"
- sequence_text: "CAVLEVVTSTAGNASASA [HC2270]"
  assigned_label: "medium"
- sequence_text: "CAVEAQLHVWAGNASASA [HC587]"
  assigned_label: "medium"
- sequence_text: "CAYLRRRRRVAGNASASA [FS-391]"
  assigned_label: "high"
